# System: mouse DLL3 on CHO-K1-mDLL3 cells (mouse) (UniProt O88516)
# Sequence (O88516 other isoform, or with tags, fused parts or gaps limits assumed): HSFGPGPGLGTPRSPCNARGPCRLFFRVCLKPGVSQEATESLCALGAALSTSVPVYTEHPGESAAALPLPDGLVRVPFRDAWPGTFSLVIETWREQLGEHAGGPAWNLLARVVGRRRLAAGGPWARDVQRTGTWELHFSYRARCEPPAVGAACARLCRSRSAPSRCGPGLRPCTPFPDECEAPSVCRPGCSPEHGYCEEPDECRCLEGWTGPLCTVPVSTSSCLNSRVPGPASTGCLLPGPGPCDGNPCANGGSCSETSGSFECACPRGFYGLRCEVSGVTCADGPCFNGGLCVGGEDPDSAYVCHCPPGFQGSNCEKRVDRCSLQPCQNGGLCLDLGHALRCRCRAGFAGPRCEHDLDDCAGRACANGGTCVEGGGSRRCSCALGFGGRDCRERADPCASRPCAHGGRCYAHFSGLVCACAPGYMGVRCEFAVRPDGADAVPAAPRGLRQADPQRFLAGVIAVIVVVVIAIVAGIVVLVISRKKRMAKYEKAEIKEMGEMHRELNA
# Assay info: FACS, CHO-K1-mDLL3 cells, 0.0064 nM antibody
Property: MFI; scope: individual binders
# number then unit; no other words

- Binder: "Hab006VL4VH1-hFc (scFv, part only; not given: scFv linker and human IgG1 Fc, V domains shown, not shown: another chain or arm of the molecule; a dimerising Fc or GST; small tags and cut ends) VL: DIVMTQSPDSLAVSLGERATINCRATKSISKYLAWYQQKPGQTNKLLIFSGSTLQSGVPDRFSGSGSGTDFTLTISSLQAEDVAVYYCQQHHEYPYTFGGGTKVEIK VH: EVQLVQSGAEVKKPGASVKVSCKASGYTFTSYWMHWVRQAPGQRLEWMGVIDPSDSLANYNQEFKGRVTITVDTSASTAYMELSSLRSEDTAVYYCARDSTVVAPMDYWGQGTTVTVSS"
  Experimental value: "110 MFI"
- Binder: "Hab014VL3VH1-hFc (scFv, part only; not given: VL-VH linker and human IgG1 Fc, V domains shown, not shown: another chain or arm of the molecule; a dimerising Fc or GST; small tags and cut ends) VL: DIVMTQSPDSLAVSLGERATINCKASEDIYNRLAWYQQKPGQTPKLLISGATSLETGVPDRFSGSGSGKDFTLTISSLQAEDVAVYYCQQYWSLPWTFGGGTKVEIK VH: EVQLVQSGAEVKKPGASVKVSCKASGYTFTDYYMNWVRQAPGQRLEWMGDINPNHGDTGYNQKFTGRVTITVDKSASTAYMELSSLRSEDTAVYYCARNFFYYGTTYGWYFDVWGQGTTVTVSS"
  Experimental value: "110 MFI"

Here is the next item to consider.
Ask | # return recorded MFI for input Hab014VL1VH2-hFc (scFv, part only; not given: VL-VH linker and human IgG1 Fc, V domains shown, not shown: another chain or arm of the molecule; a dimerising Fc or GST; small tags and cut ends) VL: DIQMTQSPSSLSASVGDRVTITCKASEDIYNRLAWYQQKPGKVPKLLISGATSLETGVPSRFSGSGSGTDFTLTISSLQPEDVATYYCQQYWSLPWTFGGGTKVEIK VH: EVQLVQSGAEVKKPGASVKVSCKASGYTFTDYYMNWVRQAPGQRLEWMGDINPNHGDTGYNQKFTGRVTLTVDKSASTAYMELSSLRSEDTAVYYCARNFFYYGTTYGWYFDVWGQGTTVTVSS
Reply | 122 MFI

Data provenance: patent EP4786492A1
